# Tested on: mTOR (Homo sapiens, UniProt P42345)
# Construct: FLAG; made in house
# Sequence (P42345 1362-2549): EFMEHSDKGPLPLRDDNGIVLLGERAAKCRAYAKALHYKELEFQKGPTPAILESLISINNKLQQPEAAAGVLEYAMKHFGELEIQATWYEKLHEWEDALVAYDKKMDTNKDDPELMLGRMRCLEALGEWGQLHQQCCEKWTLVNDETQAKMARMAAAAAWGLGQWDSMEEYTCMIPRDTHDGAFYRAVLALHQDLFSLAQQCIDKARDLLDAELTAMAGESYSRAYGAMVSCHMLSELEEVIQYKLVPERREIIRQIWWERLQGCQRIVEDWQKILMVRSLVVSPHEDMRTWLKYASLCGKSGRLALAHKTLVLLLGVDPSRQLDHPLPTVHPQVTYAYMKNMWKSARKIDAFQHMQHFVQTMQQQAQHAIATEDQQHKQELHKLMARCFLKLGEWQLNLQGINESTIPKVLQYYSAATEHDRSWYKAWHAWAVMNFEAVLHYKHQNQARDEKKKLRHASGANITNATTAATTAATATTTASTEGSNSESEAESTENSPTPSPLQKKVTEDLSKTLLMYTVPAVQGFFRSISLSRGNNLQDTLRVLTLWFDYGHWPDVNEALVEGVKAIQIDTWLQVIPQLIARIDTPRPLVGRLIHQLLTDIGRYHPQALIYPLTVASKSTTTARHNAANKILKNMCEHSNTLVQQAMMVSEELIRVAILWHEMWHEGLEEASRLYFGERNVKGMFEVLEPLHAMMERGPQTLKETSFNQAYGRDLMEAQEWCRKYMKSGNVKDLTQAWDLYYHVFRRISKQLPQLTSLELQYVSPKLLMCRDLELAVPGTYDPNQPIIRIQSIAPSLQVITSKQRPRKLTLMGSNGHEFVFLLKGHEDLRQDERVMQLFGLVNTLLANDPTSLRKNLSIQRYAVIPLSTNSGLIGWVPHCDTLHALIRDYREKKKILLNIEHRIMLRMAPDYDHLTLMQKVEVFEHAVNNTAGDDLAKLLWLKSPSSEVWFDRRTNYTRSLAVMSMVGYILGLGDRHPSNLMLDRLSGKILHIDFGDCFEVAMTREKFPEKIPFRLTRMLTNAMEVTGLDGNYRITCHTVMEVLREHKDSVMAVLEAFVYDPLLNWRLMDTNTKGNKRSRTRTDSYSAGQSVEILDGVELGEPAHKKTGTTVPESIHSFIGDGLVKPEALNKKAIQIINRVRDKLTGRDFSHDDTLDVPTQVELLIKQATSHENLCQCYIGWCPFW
# Protocol summary: In Vitro mTOR Kinase Assay (Echo), Test (a)(ii)
# Assay type: biochemical
# Measurement context: read-out: mTOR Kinase Assay (Echo)
Reported IC50 by item:
Supply the numeric figure in nM, leaving out any unit text.

- Compound: "C[C@H]1COCCN1c1cc(C2(S(C)(=O)=O)CC2)nc(-c2ccc(NC(=O)NCc3ncc[nH]3)cc2)n1 [Example 2d]"
  Units text: "nM"
  IC50: 23.9

Exam item: Query (compound): C[C@H]1COCCN1c1cc(C2(S(=O)(=O)c3ccccc3C(F)(F)F)CC2)nc(-c2ccc(NC(=O)Nc3ccc(C(F)(F)F)cc3)cc2)n1 [Example 10j] ; field requested: IC50
Marked response: 110

Exam item: Param item: C[C@H]1COCCN1c1cc(C2(S(=O)(=O)C3CC3)CC2)nc(-c2ccc(NC(=O)NC3(CO)CC3)cc2)n1 [Example 3s]
Marked response: 26.3
